Give kcat/Km for every item shown.
Substrate: N[C@@H](CC(=O)O)C(=O)O
Assay Procedure: purified protein
Particulars: co-substrate α-ketoglutarate (fixed, 0.1563–1.25 mM range), 16 µM PLP, 5 mM NAD+, 100 mM potassium phosphate pH 8, 37 °C
Report only the number, with the unit M⁻¹ s⁻¹ understood.

Q: Reported kcat/Km, protein E. coli aspartate aminotransferase (AAT) (Escherichia coli K-12; K37F/N64Y/T43I) (protein, full-length, N-terminal His-tag, expressed in E. coli BL21-Gold (DE3), Ni-NTA purified; 90 kDa homodimer, PLP-dependent) MFENITAAPADPILGLADLFRADERPGKINLGIGVYFDETGKIPVLTSVKKAEQYLLENETTKYYLGIDGIPEFGRCTQELLFGKGSALINDKRARTAQTPGGTGALRVAADFLAKNTSVKRVWVSNPSWPNHKSVFNSAGLEVREYAYYDAENHTLDFDALINSLNEAQAGDVVLFHGCCHNPTGIDPTLEQWQTLAQLSVEKGWLPLFDFAYQGFARGLEEDAEGLRAFAAMHKELIVASSYSKNFGLYNERVGACTLVAADSETVDRAFSQMKAAIRANYSNPPAHGASVVATILSNDALRAIWEQELTDMRQRIQRMRQLFVNTLQEKGANRDFSFIIKQNGMFSFSGLTKEQVLRLREEFGVYAVASGRVNVAGMTPDNMAPLCEAIVAVL : ____
Result: 2200

Q: Reported kcat/Km, protein E. coli aspartate aminotransferase (AAT) (Escherichia coli K-12; K37I/N64S/T43F/V35A) (protein, full-length, N-terminal His-tag, expressed in E. coli BL21-Gold (DE3), Ni-NTA purified; 90 kDa homodimer, PLP-dependent) MFENITAAPADPILGLADLFRADERPGKINLGIGAYIDETGKFPVLTSVKKAEQYLLENETTKSYLGIDGIPEFGRCTQELLFGKGSALINDKRARTAQTPGGTGALRVAADFLAKNTSVKRVWVSNPSWPNHKSVFNSAGLEVREYAYYDAENHTLDFDALINSLNEAQAGDVVLFHGCCHNPTGIDPTLEQWQTLAQLSVEKGWLPLFDFAYQGFARGLEEDAEGLRAFAAMHKELIVASSYSKNFGLYNERVGACTLVAADSETVDRAFSQMKAAIRANYSNPPAHGASVVATILSNDALRAIWEQELTDMRQRIQRMRQLFVNTLQEKGANRDFSFIIKQNGMFSFSGLTKEQVLRLREEFGVYAVASGRVNVAGMTPDNMAPLCEAIVAVL : ____
Result: 7600

Data origin, for the record: paper PMC10539519
